TARGET_DESC: PLpro of SARS-CoV-2 (Severe acute respiratory syndrome coronavirus 2)
PROTOCOL_TEXT: Enzyme activity test in vitro: inhibition of PLpro at fixed concentration 50 μM (RLRGG-AMC substrate)
Assay type: biochemical
STUDY_CONDITIONS: read-out: Inhibition rate at 50 μM (%)
Quick reference: inhibition at 50 µM of the listed items.
API: value field is a number in %; no unit string.

Known results for compounds:
{"SMILES_REPRESENTATION": "O=C(O)c1cccc(Nc2c(-c3ccc([N+](=O)[O-])cc3)nc3cnccn23)c1", "inhibition at 50 µM / %": 17.2}
{"SMILES_REPRESENTATION": "CSc1ccc(-c2nc3cnccn3c2Nc2cccc(C(=O)O)c2)cc1", "inhibition at 50 µM / %": 33.6}
{"SMILES_REPRESENTATION": "CCNC(=O)c1ccc(Nc2c(-c3ccccc3)nc3cnccn23)cc1", "inhibition at 50 µM / %": 32.3}
{"SMILES_REPRESENTATION": "O=C(O)c1cccc(Nc2c(-c3cccc(O)c3)nc3cnccn23)c1", "inhibition at 50 µM / %": 11.7}
{"SMILES_REPRESENTATION": "CCNC(=O)c1ccc(Nc2c(-c3ccc(OC)c(OC)c3)nc3cnccn23)cc1", "inhibition at 50 µM / %": 42.2}
{"SMILES_REPRESENTATION": "O=C(NCc1ccco1)c1cccc(Nc2c(-c3ccc(Cl)cc3)nc3cnccn23)c1", "inhibition at 50 µM / %": 40.5}

q: Returns the measured inhibition at 50 µM for the input compound. Input: "CSc1ccc(-c2nc3cnccn3c2Nc2cccc(C(=O)N3CCCCC3)c2)cc1"
a: 43.9

q: Returns the measured inhibition at 50 µM for the input compound. Input: "CCNC(=O)c1ccc(-c2nc3cnccn3c2Nc2c(C)cccc2CC)cc1"
a: 27.7

q: Returns the measured inhibition at 50 µM for the input compound. Input: "COC(=O)c1cccc(Nc2c(-c3ccccc3O)nc3cnccn23)c1"
a: 25

* * *

TARGET_DESC: PLpro of SARS-CoV-2 (Severe acute respiratory syndrome coronavirus 2, UniProt P0DTD1)
PROTOCOL_TEXT: Enzyme activity test in vitro: inhibition of PLpro at fixed concentration 50 μM (RLRGG-AMC substrate)
Format: biochemical
STUDY_CONDITIONS: compound 50 μM, 10 min preincubation at 37° C., Table 1; read-out: Inhibition rate at 50 μM (%)
Quick reference: inhibition at 50 µM of the listed items.
API: value field is a number in %; no unit string.

{"COMPOUND": "COc1ccc(-c2nc3cnccn3c2Nc2ccc(C(N)=O)cc2)cc1OC [P19454]", "TARGET_DESC": "PLpro of SARS-CoV-2 (Severe acute respiratory syndrome coronavirus 2, UniProt P0DTD1)", "inhibition at 50 µM, %": 53.8}

q: Returns the measured inhibition at 50 µM for the input compound. Input: COc1ccc(-c2nc3cnccn3c2Nc2ccc(C(N)=O)cc2)cc1 [P19442]
a: 61.1

q: Returns the measured inhibition at 50 µM for the input compound. Input: O=C(O)c1ccc(Nc2c(-c3ccc(Cl)cc3)nc3cnccn23)cc1 [P18224]
a: 54.6

q: Returns the measured inhibition at 50 µM for the input compound. Input: CSc1ccc(-c2nc3cnccn3c2Nc2ccc(C(N)=O)cc2)cc1 [P19462]
a: 65

q: Returns the measured inhibition at 50 µM for the input compound. Input: COc1ccc(-c2nc3cnccn3c2Nc2cccc(C(N)=O)c2)cc1 [P22475]
a: 60.1

q: Returns the measured inhibition at 50 µM for the input compound. Input: COC(=O)c1cccc(Nc2c(-c3ccc(N(C)C)cc3)nc3cnccn23)c1 [P19446]
a: 65.8

q: Returns the measured inhibition at 50 µM for the input compound. Input: CCNC(=O)c1ccc(Nc2c(-c3ccc(OC)cc3)nc3cnccn23)cc1 [P22471]
a: 52.8
